Molecular target: GST-Hu-p50 (Homo sapiens, UniProt P19838 7-356)
Sequence (P19838 7-356): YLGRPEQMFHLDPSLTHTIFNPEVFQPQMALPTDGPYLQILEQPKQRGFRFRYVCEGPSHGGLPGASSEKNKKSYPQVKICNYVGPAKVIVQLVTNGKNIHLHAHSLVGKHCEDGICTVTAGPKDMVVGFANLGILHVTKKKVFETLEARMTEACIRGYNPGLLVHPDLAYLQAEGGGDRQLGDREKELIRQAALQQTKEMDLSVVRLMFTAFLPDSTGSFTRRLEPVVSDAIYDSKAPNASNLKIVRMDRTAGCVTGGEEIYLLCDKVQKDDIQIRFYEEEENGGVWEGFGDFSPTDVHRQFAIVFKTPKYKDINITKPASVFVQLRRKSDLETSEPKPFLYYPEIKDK
Assay: protein-binding microarray (PBM); PBM: ~300 nM protein, 6 mM HEPES pH 7.8, 80 mM KCl, 0.5 mM EDTA, 0.5 mM EGTA, 6% glycerol, 35 ng/ul poly-dIdC, 1% milk, 1 h, room temperature; high values mean tight binding
Details: dsDNA, one strand shown
Please go through the items and note down their binding signal.
Use z-score as the unit, but write only the number.

Record request: binding signal value, item "CCGATTAACATCAGGGAGCTCCCTGATGTTAATCGGGTCTTGATTCGCTTGACGCTGCTG"
2.59

Recorded binding signal of "CCGATTAACATCAGGACTGTCCCTGATGTTAATCGGGTCTTGATTCGCTTGACGCTGCTG" , please.
3.92

Fill in the blank: the reported binding signal of "CCGATTAACATCAGGGGAGAATATGATGTTAATCGGGTCTTGATTCGCTTGACGCTGCTG" is ____.
4.46

For "CCGATTAACATCAGGGGGGTACATGATGTTAATCGGGTCTTGATTCGCTTGACGCTGCTG" , what is its reported binding signal?
2.93

Need binding signal of "CCGATTAACATCAAGGGGAGTCCTGATGTTAATCGGGTCTTGATTCGCTTGACGCTGCTG" , thanks.
4.3

Looking for the measured binding signal of "CCGATTAACATCAGGAATCCCACTGATGTTAATCGGGTCTTGATTCGCTTGACGCTGCTG" , can you help?
1.55

GET /values?readout=binding signal&item= "CCGATTAACATCAGGGAGATTTATGATGTTAATCGGGTCTTGATTCGCTTGACGCTGCTG"
4.86

Request the reported binding signal associated with "CCGATTAACATCAGAATGCCCCCTGATGTTAATCGGGTCTTGATTCGCTTGACGCTGCTG"
4.7

Returns the measured binding signal for the input sequence. Input: "CCGATTAACATCACCTATTCCCCTGATGTTAATCGGGTCTTGATTCGCTTGACGCTGCTG"
5.12

For the sequence "CCGATTAACATCAGGGGGGGTTATGATGTTAATCGGGTCTTGATTCGCTTGACGCTGCTG" , what binding signal is on record?
4.91

Need binding signal, item "CCGATTAACATCAGGGGGTCACCTGATGTTAATCGGGTCTTGATTCGCTTGACGCTGCTG"
2.9

Item under review: "CCGATTAACATCAAAATTCCCATTGATGTTAATCGGGTCTTGATTCGCTTGACGCTGCTG" . Reported binding signal?
4.55

----------
Target: GST-Nv-NF-kB (Ser allele) (Nematostella vectensis, UniProt A7UNT2 2-411)
Sequence: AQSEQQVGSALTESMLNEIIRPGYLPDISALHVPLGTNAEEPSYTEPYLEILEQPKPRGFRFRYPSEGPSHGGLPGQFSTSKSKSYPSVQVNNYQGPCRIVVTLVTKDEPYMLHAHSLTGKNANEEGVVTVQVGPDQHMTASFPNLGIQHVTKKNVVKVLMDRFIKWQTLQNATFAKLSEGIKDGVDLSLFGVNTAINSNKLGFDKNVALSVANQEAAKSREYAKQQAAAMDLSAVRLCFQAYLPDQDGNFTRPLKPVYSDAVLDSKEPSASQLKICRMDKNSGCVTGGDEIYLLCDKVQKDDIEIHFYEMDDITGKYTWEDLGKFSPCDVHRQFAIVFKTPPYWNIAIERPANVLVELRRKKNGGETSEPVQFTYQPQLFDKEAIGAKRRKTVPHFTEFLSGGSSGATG
Assay: protein-binding microarray (PBM); PBM: ~300 nM protein, 6 mM HEPES pH 7.8, 80 mM KCl, 0.5 mM EDTA, 0.5 mM EGTA, 6% glycerol, 35 ng/ul poly-dIdC, 1% milk, 1 h, room temperature; high values mean tight binding
Conditions: dsDNA, one strand shown
observed-property: binding signal (z-score)
Unit z-score implied. Number only.

// binding signal lookup, key: "CCGATTAACATCAGGGAATTAAATGATGTTAATCGGGTCTTGATTCGCTTGACGCTGCTG"
3.98

# lookup: binding signal of "CCGATTAACATCAAGCAACCCCCTGATGTTAATCGGGTCTTGATTCGCTTGACGCTGCTG"
3.95

Given "CCGATTAACATCAGAATTCCCGCTGATGTTAATCGGGTCTTGATTCGCTTGACGCTGCTG" , state its recorded binding signal.
3.89

----------
Target: GST-Hu-p50 (Homo sapiens, UniProt P19838 7-356)
Assay: protein-binding microarray (PBM); PBM: ~300 nM protein, 6 mM HEPES pH 7.8, 80 mM KCl, 0.5 mM EDTA, 0.5 mM EGTA, 6% glycerol, 35 ng/ul poly-dIdC, 1% milk, 1 h, room temperature; Ap Aiptasia and Nv Nematostella (sea anemones) / Co Capsaspora / Aq Amphimedon (sponge) / Dm Drosophila / Hu human; RHD is the Rel homology domain; high values mean tight binding
Conditions: dsDNA, one strand shown
observed-property: binding signal (z-score)
Could you give me the number in z-score? Just the number is fine.

Which value of binding signal has been reported for "CCGATTAACATCAAATTCCCGTATGATGTTAATCGGGTCTTGATTCGCTTGACGCTGCTG" in the records?
3.02

Which binding signal is listed for "CCGATTAACATCACGGGAAACCCTGATGTTAATCGGGTCTTGATTCGCTTGACGCTGCTG" ?
2.62

Return reported binding signal; argument: "CCGATTAACATCAGACCTCCCCCTGATGTTAATCGGGTCTTGATTCGCTTGACGCTGCTG"
3.87

Any idea what binding signal was measured for "CCGATTAACATCAGGCAAATCCCTGATGTTAATCGGGTCTTGATTCGCTTGACGCTGCTG" ?
1.9

Using the record for "CCGATTAACATCAAATATACCCCTGATGTTAATCGGGTCTTGATTCGCTTGACGCTGCTG" , report its binding signal.
2.88

Find the recorded binding signal belonging to "CCGATTAACATCACCGGAAATCCTGATGTTAATCGGGTCTTGATTCGCTTGACGCTGCTG" and report it.
1.78

Recorded binding signal for "CCGATTAACATCAGGGAATGCACTGATGTTAATCGGGTCTTGATTCGCTTGACGCTGCTG" , please?
2.28

If you can, please state the reported binding signal value of "CCGATTAACATCAGGAGTTTACCTGATGTTAATCGGGTCTTGATTCGCTTGACGCTGCTG" .
1.4

State the recorded binding signal for this entry: "CCGATTAACATCAGATTTCTCCCTGATGTTAATCGGGTCTTGATTCGCTTGACGCTGCTG"
1.72

Give its binding signal value. Item: "CCGATTAACATCAGGGGATGACCTGATGTTAATCGGGTCTTGATTCGCTTGACGCTGCTG"
3.42

Entry "CCGATTAACATCAAAATCTTCCCTGATGTTAATCGGGTCTTGATTCGCTTGACGCTGCTG" : reported binding signal = ?
3.8

# input sequence: "CCGATTAACATCAAATTCTCCCCTGATGTTAATCGGGTCTTGATTCGCTTGACGCTGCTG" ; wanted: its binding signal
5.07

Consider the sequence shown here: "CCGATTAACATCATGGTGGTACCTGATGTTAATCGGGTCTTGATTCGCTTGACGCTGCTG" What is its recorded binding signal?
1.07

I have this sequence here, "CCGATTAACATCAAGAATTCCCGTGATGTTAATCGGGTCTTGATTCGCTTGACGCTGCTG" , and I need its recorded binding signal.
4.39

So what does the record say about binding signal for "CCGATTAACATCAAAAATTTCCGTGATGTTAATCGGGTCTTGATTCGCTTGACGCTGCTG" ?
1.34

# lookup: binding signal of "CCGATTAACATCAACGTTTTCCCTGATGTTAATCGGGTCTTGATTCGCTTGACGCTGCTG"
3.09

I'd like to know its binding signal. The sequence in question is "CCGATTAACATCAAGTAAATCCCTGATGTTAATCGGGTCTTGATTCGCTTGACGCTGCTG"
2.28

Name the reported binding signal value associated with the sequence "CCGATTAACATCAGGGGGTGTAATGATGTTAATCGGGTCTTGATTCGCTTGACGCTGCTG"
3.98

Find the recorded binding signal belonging to "CCGATTAACATCAGAGAAGTCCCTGATGTTAATCGGGTCTTGATTCGCTTGACGCTGCTG" and report it.
5.25

Recorded binding signal of "CCGATTAACATCAATGGGAATTCTGATGTTAATCGGGTCTTGATTCGCTTGACGCTGCTG" , please.
3.4

Give its binding signal value. Item: "CCGATTAACATCAAAAATCCCTATGATGTTAATCGGGTCTTGATTCGCTTGACGCTGCTG"
4.72

Would you kindly share the measured binding signal for "CCGATTAACATCACCGATTTCCCTGATGTTAATCGGGTCTTGATTCGCTTGACGCTGCTG" ?
3.65

Quick one: binding signal of "CCGATTAACATCAGGGAACTACCTGATGTTAATCGGGTCTTGATTCGCTTGACGCTGCTG" ?
3.92
